Where do these numbers come from? They come from PubChem BioAssay (NCI).

assay: NCI Yeast Anticancer Drug Screen. Data for the bub3 strain (AID 167); details: S. cerevisiae bub3 mutant strain, at 5.0 µM (retest, dose inferred, filed as 0.5), hits give high values
About 79,000 compounds went through this panel and 15% of them were active in at least one assay; those are over-represented in the sample as a whole.
Below, each entry is listed alongside its reported growth inhibition.
Write it as a number; the unit % goes unstated.

Sample answers from the record:
CC(C)(C)C(=O)CC(=O)C(F)(F)C(F)(F)C(F)(F)F.CC(C)(C)C(=O)CC(=O)C(F)(F)C(F)(F)C(F)(F)F.CC(C)(C)C(=O)CC(=O)C(F)(F)C(F)(F)C(F)(F)F.[Gd] :: -17
CCN(CC)CC(O)c1ccc(/C=C/c2ccc(Cl)cc2)cc1 (centres undefined) :: 17
CN(C)c1ccc(/C=C(\NC(=O)c2ccccc2)c2nc3ccccc3s2)cc1 :: 37

Turning now to a further molecule:
Ask: For the molecule O=[N+]([O-])c1ccc(C2=C[P+](c3ccccc3)(c3ccccc3)C=C(c3ccccc3)O2)cc1 , report growth inhibition.
Result: 45
